# credit: patent US9850283B2

biological target: LK35.2-hPD-L1 cells / PE-labeled PD-1-Ig (Homo sapiens); construct: expressed in transfected cells; host or cells: LK35.2 mouse B cell line; assay: LK35.2-hPD-L1 cell binding high-content screening assay; format: cell-based; conditions: cell binding assay, cell line not given; cluster symbol; read-out: CBA IC50 cluster
Sequence (Q9NZQ7 19-290): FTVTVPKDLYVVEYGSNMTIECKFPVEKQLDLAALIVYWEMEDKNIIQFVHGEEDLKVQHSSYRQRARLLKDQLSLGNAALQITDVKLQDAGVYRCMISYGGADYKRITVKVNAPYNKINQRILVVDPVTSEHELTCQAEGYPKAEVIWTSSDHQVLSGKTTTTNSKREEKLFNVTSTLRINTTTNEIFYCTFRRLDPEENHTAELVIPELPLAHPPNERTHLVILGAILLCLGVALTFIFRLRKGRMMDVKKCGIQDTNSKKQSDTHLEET
Positions of bridges follow the written chain, without caps; N, C: chain ends. Non-standard residues stand in square brackets, D forms with d. Residues, ends and D or L forms follow the SMILES beside them. ξ: configuration not given here. *: point of attachment. Bta = N[C@@H](Cc1csc2ccccc12)C(=O)O; Hyp = O=C(O)[C@@H]1C[C@@H](O)CN1; NMeF = CN[C@@H](Cc1ccccc1)C(=O)O; dHyp = O=C(O)[C@H]1C[C@H](O)CN1; NMeNle = CCCC[C@H](NC)C(=O)O; NMeM = CN[C@@H](CCSC)C(=O)O; NMeS = CN[C@@H](CO)C(=O)O; NMeA = CN[C@@H](C)C(=O)O; dNMeA = CN[C@H](C)C(=O)O; Bn = c1ccc(C*)cc1; ξC = NC(CS)C(=O)O; Sar = CNCC(=O)O
IC50 values for the compounds below.

Here's what some known entries look like.
| compound | IC50 |
| --- | --- |
| CCCC[C@H]1C(=O)N(C)CC(=O)N[C@@H](CC(=O)O)C(=O)N[C@@H](C(C)C)C(=O)N(C)[C@@H](Cc2ccccc2)C(=O)N[C@@H](Cc2ccc(O)cc2)C(=O)N2C[C@@H](O)C[C@@H]2C(=O)N[C@@H](Cc2c[nH]c3ccccc23)C(=O)N[C@@H](Cc2ccc(O)cc2)C(=O)N[C@@H](CC(C)C)C(=O)N[C@H](C(=O)NCC(N)=O)CSCC(=O)N[C@@H](Cc2ccccc2)C(=O)N(C)[C@@H](Cc2ccccc2)C(=O)N1C [Example 3583] ({CH2CO}-F[NMeF][NMeNle][Sar]DV[NMeF]Y[dHyp]WYLCG-NH2; thioether N-13) | 0.158 to 4.71 nM |
| CCCC[C@H]1C(=O)N[C@@H](CCCNC(=N)N)C(=O)NC(C(=O)NCC(N)=O)CSCC(=O)N[C@@H](Cc2ccc(O)cc2)C(=O)N(C)[C@@H](C)C(=O)N[C@@H](CC(N)=O)C(=O)N2CCC[C@H]2C(=O)N[C@@H](Cc2cnc[nH]2)C(=O)N[C@@H](CO)C(=O)N2C[C@H](O)C[C@H]2C(=O)N[C@@H](Cc2c[nH]c3ccccc23)C(=O)N[C@@H](CO)C(=O)N[C@@H](Cc2csc3ccccc23)C(=O)N(C)[C@@H](CCSC)C(=O)N1C (some centres unmarked) [Example 9114] ({CH2CO}-Y[NMeA]NPHS[Hyp]WS[Bta][NMeM][NMeNle]R[ξC]G-NH2; thioether N-14) | 4.78 to 72.9 nM |
| CCCC[C@H]1C(=O)N(C)[C@@H](CCCC)C(=O)N[C@@H](CCCNC(=N)N)C(=O)NC(C(=O)NCC(N)=O)CSCC(=O)N[C@@H](Cc2ccc(O)cc2)C(=O)N(C)[C@@H](C)C(=O)N[C@@H](CC(N)=O)C(=O)N2CCC[C@H]2C(=O)N[C@@H](Cc2cnc[nH]2)C(=O)N[C@@H](CC(N)=O)C(=O)N2CCC[C@H]2C(=O)N[C@@H](Cc2c[nH]c3ccccc23)C(=O)N[C@@H](CO)C(=O)N[C@@H](Cc2c[nH]c3ccccc23)C(=O)N1C (some centres unmarked) [Example 9063] ({CH2CO}-Y[NMeA]NPHNPWSW[NMeNle][NMeNle]R[ξC]G-NH2; thioether N-14) | 0.158 to 4.71 nM |
| CC(C)C[C@@H]1NC(=O)[C@H](Cc2cnc[nH]2)NC(=O)[C@@H]2CCCN2C(=O)[C@H](CC(N)=O)NC(=O)[C@H](C)N(C)C(=O)[C@H](Cc2ccccc2)NC(=O)CSC[C@@H](C(=O)NCC(N)=O)NC(=O)[C@H](CCCNC(=N)N)NC(=O)[C@H](C)N(C)C(=O)[C@H](COCc2ccccc2)N(C)C(=O)[C@H](Cc2c[nH]c3ccccc23)NC(=O)[C@H](CO)NC(=O)[C@H](Cc2c[nH]c3ccccc23)NC(=O)CN(C)C1=O [Example 6012] ({CH2CO}-F[NMeA]NPHL[Sar]WSW[NMeS](Bn)[NMeA]RCG-NH2; thioether N-14) | 4.78 to 72.9 nM |
| CCCC[C@H]1C(=O)N(C)[C@@H](CCSC)C(=O)N[C@@H](CCCNC(=N)N)C(=O)NC(C(=O)NCC(N)=O)CSCC(=O)N[C@@H](Cc2ccc(O)cc2)C(=O)N(C)[C@@H](C)C(=O)N[C@@H](CC(N)=O)C(=O)N2CCC[C@H]2C(=O)N[C@@H](Cc2cnc[nH]2)C(=O)N[C@@H](CO)C(=O)N2CCC[C@H]2C(=O)N[C@@H](Cc2c[nH]c3ccccc23)C(=O)N[C@@H](CO)C(=O)N[C@@H](Cc2c[nH]c3ccccc23)C(=O)N1C (some centres unmarked) [Example 9105] ({CH2CO}-Y[NMeA]NPHSPWSW[NMeNle][NMeM]R[ξC]G-NH2; thioether N-14) | 4.78 to 72.9 nM |

// recorded IC50 for CCCC[C@H]1C(=O)N(C)[C@@H](CCCC)C(=O)N[C@@H](CO)C(=O)NC(C(=O)NCC(N)=O)CSCC(=O)N[C@@H](Cc2ccc(O)cc2)C(=O)N(C)[C@@H](C)C(=O)N[C@@H](CC(N)=O)C(=O)N2CCC[C@H]2C(=O)N[C@@H](Cc2cnc[nH]2)C(=O)N[C@@H](CC(C)C)C(=O)N2CCC[C@H]2C(=O)N[C@@H](Cc2c[nH]c3ccccc23)C(=O)N[C@@H](CO)C(=O)N[C@@H](Cc2csc3ccccc23)C(=O)N1C (some centres unmarked) [Example 9027] ({CH2CO}-Y[NMeA]NPHLPWS[Bta][NMeNle][NMeNle]S[ξC]G-NH2; thioether N-14) : 0.158 to 4.71 nM

// recorded IC50 for CCCC[C@H]1C(=O)N(C)[C@@H](CCCC)C(=O)N[C@@H](CCCNC(=N)N)C(=O)NC(C(=O)N[C@@H](CO)C(N)=O)CSCC(=O)N[C@@H](Cc2ccc(O)cc2)C(=O)N(C)[C@@H](C)C(=O)N[C@@H](CC(N)=O)C(=O)N2CCC[C@H]2C(=O)N[C@@H](Cc2cnc[nH]2)C(=O)N[C@@H](CO)C(=O)N2CCC[C@H]2C(=O)N[C@@H](Cc2c[nH]c3ccccc23)C(=O)N[C@@H](CO)C(=O)N[C@@H](Cc2c[nH]c3ccccc23)C(=O)N1C (some centres unmarked) [Example 9077] ({CH2CO}-Y[NMeA]NPHSPWSW[NMeNle][NMeNle]R[ξC]S-NH2; thioether N-14) : 4.78 to 72.9 nM

// recorded IC50 for CCCC[C@H]1C(=O)N(C)CC(=O)N[C@@H](CC(=O)O)C(=O)N[C@@H](C(C)C)C(=O)N(C)[C@@H](Cc2ccccc2)C(=O)N[C@@H](Cc2ccc(O)cc2)C(=O)N(C)[C@H](C)C(=O)N[C@@H](Cc2c[nH]c3ccccc23)C(=O)N[C@@H](Cc2ccc(O)cc2)C(=O)N[C@@H](CC(C)C)C(=O)N[C@H](C(=O)NCC(N)=O)CSCC(=O)N[C@@H](Cc2ccccc2)C(=O)N(C)[C@@H](Cc2ccccc2)C(=O)N1C [Example 3551] ({CH2CO}-F[NMeF][NMeNle][Sar]DV[NMeF]Y[dNMeA]WYLCG-NH2; thioether N-13) : 4.78 to 72.9 nM
